target desc: T1, soluble human Lag3-IgG1-Fc with biotinylated C-terminal Avi-tag (human, biotin on the C-terminal Avi-tag)
T1 construct: also called LAG3-Fc-avi; biotinylated LAG3-Fc antigen
T1 sequence (chain, as listed by the source limits assumed): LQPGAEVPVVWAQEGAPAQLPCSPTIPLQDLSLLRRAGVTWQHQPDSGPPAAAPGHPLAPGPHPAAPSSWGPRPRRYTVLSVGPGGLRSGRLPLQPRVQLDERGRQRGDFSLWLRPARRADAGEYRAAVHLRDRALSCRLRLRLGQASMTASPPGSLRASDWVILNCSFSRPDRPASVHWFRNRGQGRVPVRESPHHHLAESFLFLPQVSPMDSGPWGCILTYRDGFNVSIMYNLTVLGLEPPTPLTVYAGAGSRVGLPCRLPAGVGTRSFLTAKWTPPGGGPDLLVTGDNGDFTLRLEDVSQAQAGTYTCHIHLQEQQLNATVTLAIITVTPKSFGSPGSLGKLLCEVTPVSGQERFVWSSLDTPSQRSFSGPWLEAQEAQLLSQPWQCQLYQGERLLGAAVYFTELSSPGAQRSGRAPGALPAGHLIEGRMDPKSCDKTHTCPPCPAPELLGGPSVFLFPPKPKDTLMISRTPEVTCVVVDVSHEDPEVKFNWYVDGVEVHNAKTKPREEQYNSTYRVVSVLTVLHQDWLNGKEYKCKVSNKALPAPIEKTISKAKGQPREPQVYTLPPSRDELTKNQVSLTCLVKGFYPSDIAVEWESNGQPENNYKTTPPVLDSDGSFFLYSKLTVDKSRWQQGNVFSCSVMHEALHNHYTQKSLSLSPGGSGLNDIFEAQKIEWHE
test summary: SPR (ProteOn XPR36), biotinylated LAG3-Fc captured on NLC chip, purified aVH as analyte, 25 C;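 note: One-shot kinetics in PBST running buffer, rates fitted by 1:1 Langmuir model fitting association and dissociation together, KD as koff/kon, biotinylated Fc surface as negative control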
property name: koff (s⁻¹)

[
  {
    "binder": "LAG3 19G3 aVH domain (VHH, also called P19G3) VHH: EVQLVESGGGLVQPGGSLRLSCAASGFNIKYQCIGWVRRAPGKGTELVAEICSYDGYTRYADSVKGRFTISADTSKNTAYLQMNSLRAEDTAVYYCAAEESVEGFIYWGQGTTVTVSS",
    "koff / s⁻¹": 0.00466
  },
  {
    "binder": "LAG3 P9G1 aVH domain (VHH) VHH: EVQLVESGGGLVQPGGSLRLSCAASGFNIKDTCIGWVRRAPGKGTELVAEICQDIGYTRYADSVKGRFTISADTSKNTAYLQMNSLRAEDTAVYYCAGEEGATNFKYWGQGTTVTVSS",
    "koff / s⁻¹": 0.000829
  },
  {
    "binder": "LAG3 P10C3 aVH domain (VHH) VHH: EVQLVESGGGLVQPGGSLRLSCAASGFNIKDTCIGWVRRAPGKGTELVAEICTDAGYTRYADSVKGRFTISADTSKNTAYLQMNSLRAEDTAVYYCAASESPSGFRYWGQGTTVTVSS",
    "koff / s⁻¹": 0.00217
  },
  {
    "binder": "LAG3 P11E2 aVH domain (VHH) VHH: EVQLVESGGGLVQPGGSLRLSCAASGFNIKDTCIGWVRRAPGKGTELVAEICDDIGYTRYADSVKGRFTISADTSKNTAYLQMNSLRAEDTAVYYCASQEHQWSFKYWGQGTTVTVSS",
    "koff / s⁻¹": 0.00157
  }
]

[A] LAG3 P21A03 aVH domain (VHH, also called 21A3) VHH: EVQLVESGGGLVQPGGSLRLSCAASGFNIKDTCIGWVRRAPGKGTELVAEICEDIGYTRYADSVKGRFTISADTSKNTAYLQMNSLRAEDTAVYYCAANEHSVGFNYWGQGTTVTVSS
[B] LAG3 P11A2 aVH domain (VHH) VHH: EVQLVESGGGLVQPGGSLRLSCAASSFNIKDTYIGWVRRAPGKGTELVAEIACHEGTTRYADSVKGRFTISCDTSKNTAYLQMNSLRAEDTAVYYCANTEYDDIFDYWGQGTTVTVSS
[C] LAG3 17D7 aVH domain (VHH) VHH: EVQLVESGGGLVQPGGSLRLSCAASGFNIKDTCIGWVRRAPGKGTELVAEICTDIGYTRYADSVKGRFTISADTSKNTAYLQMNSLRAEDTAVYYCAAGEGSSGFHYWGQGTTVTVSS
Input: Endpoint returns the given binders ordered by ascending koff. Use the labels to give the requested order.
Output: A, C, B
(A: 0.000387 s⁻¹, C: 0.00493 s⁻¹, B: 0.0138 s⁻¹)
